Where do these numbers come from? They come from patent US20250163057A1.

For each record, write down the corresponding IC50.
Tested on: Cullin-3 (CUL3) neddylation
Assay explanation: AlphaLISA assay for Cullin-3 (CUL3) neddylation in TF 1 cells
Format: cell-based
Condition info: Homo sapiens, TF-1, 3 h, 3 hours treatment

The following compounds each have a reported value; give each one's IC50.
1. CCN1C(=O)[C@H](NC(=O)c2cccc(C(F)(F)F)c2)[C@H](C2CC2)c2c(C(=O)N(C)C(C)C#N)nn(C3CCOCC3)c21 (mixture of isomers) [Compound I-415]
2. CCN1C(=O)[C@@H](NC(=O)C23CC(C(F)F)(C2)C3)[C@@H](C2CC2)c2c(C(=O)N3[C@H](C#N)C[C@H]4C[C@H]43)nn(C3CCOCC3)c21 [Compound I-662]
3. CCN1C(=O)[C@@H](NC(=O)c2cccc(C(F)(F)F)c2)[C@@H](c2ccc(F)cc2)c2c(C(=O)N3CCC[C@H]3C#N)nn(-c3cccc(OCCCN4CCOCC4)c3)c21 [Compound I-338]
4. CCN1C(=O)[C@@H](NC(=O)c2cccc3cccnc23)[C@@H](C2CC2)c2c(C(=O)N3[C@H](C#N)C[C@H]4C[C@H]43)nn(C3CCOCC3)c21 [Compound I-527]
5. CCN1C(=O)[C@H](NC(=O)c2cccc(C(F)(F)F)c2)[C@H](c2ccc(F)cc2)c2c(C(=O)N3CCC[C@H]3C#N)nn(-c3cccc(OCCCN4CCC5(CC4)COC5)c3)c21 [Compound I-581]
6. CCN1C(=O)[C@@H](NC(=O)c2cccc(C(F)(F)F)c2)[C@@H](C2CC2)c2c(C(=O)N3CC[C@H]3C#N)nn(C3CCOCC3)c21 [Compound I-660]
7. CCN1C(=O)[C@@H](NC(=O)c2cccc(C(F)(F)F)c2)[C@@H](c2ccc(F)cc2)c2c(C(=O)N(CC#N)CCN3CC4CC(C3)O4)nn(-c3ccccc3)c21 (mixture of isomers) [Compound I-322]

Result:
> 1000 nM
> 1000 nM
≤ 100 nM
100 to 1000 nM
> 1000 nM
≤ 100 nM
≤ 100 nM

The following compounds each have a reported value; give each one's IC50.
1. CCN1C(=O)[C@@H](NC(=O)c2cccc(C(F)(F)F)c2)[C@@H](c2ccc(F)cc2)c2c(C(=O)N3CCCC[C@H]3C#N)nn(-c3ccccc3)c21 (mixture of isomers) [Compound I-270]
2. CCN1C(=O)[C@@H](NC(=O)c2cccc(C(F)(F)F)c2)[C@@H](c2ccc(F)cc2)c2c(C(=O)N(C)C3(C#N)CCC3)nn(-c3ccccc3)c21 (racemic) [Compound I-689]
3. CCN1C(=O)[C@@H](NC(=O)c2cccc(C(F)(F)F)c2)[C@@H](C2CC2)c2c(C(=O)N3CCC=C3C#N)nn(C3CCOCC3)c21 [Compound I-437]
4. CCN1C(=O)[C@@H](NC(=O)c2cccc(C(F)(F)F)c2)[C@@H](c2ccc(F)cc2)c2c(C(=O)N(C)[C@@H](C)C#N)nn(-c3ccccc3)c21 (single isomer, unassigned) [Compound I-300]

Result:
1: ≤ 100 nM; 2: 100 to 1000 nM; 3: > 1000 nM; 4: ≤ 100 nM

---

Target: DCN2 (DCUND2) protein PONY domain (Homo sapiens (Human), UniProt Q6PH85)
Sequence (Q6PH85 60-248): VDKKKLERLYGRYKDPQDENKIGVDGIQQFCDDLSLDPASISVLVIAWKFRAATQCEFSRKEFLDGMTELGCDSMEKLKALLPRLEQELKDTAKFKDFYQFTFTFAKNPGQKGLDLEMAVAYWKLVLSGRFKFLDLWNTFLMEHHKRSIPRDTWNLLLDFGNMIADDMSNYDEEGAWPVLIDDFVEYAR
Assay explanation: Measurement of Kinact/KI in the DCN2 TR-FRET Assay
Assay type: binding
Condition info: read-out: Kinact/KI (converted)
For each record, write down the corresponding kinact/KI.
One number for each entry, in M⁻¹ s⁻¹.

Answered examples (5):
[
  {
    "Compound": "CCN1C(=O)[C@@H](NC(=O)c2cccc(C(F)(F)F)c2)[C@@H](C2CC2)c2c(C(=O)N3CCNC[C@H]3C#N)nn(-c3ccccc3)c21 [Compound I-383]",
    "Measured attribute": "kinact/KI",
    "Assay value": 48300
  },
  {
    "Compound": "CCN1C(=O)[C@@H](NC(=O)c2cccc(C(F)(F)F)c2)[C@@H](c2ccc(F)cc2)c2c(C(=O)N3CCNC[C@H]3C#N)nn(C3CCOCC3)c21 [Compound I-363]",
    "Measured attribute": "kinact/KI",
    "Assay value": 263000
  },
  {
    "Compound": "CCN1C(=O)[C@@H](NC(=O)c2cccc(C(F)(F)F)c2)[C@@H](c2ccc(F)cc2)c2c([C@@H](C)NC#N)nn(-c3ccccc3)c21 [Compound I-73]",
    "Measured attribute": "kinact/KI",
    "Assay value": 83300
  },
  {
    "Compound": "CCN1C(=O)[C@@H](NC(=O)c2cccc(C(F)(F)F)c2)[C@@H](c2ccc(F)cc2)c2c(C(=O)N(C)[C@@H](C#N)CCN(C)C)nn(C3CCOCC3)c21 [Compound I-369]",
    "Measured attribute": "kinact/KI",
    "Assay value": 11700
  },
  {
    "Compound": "CCN1C(=O)[C@@H](NC(=O)c2cccc(C(F)(F)F)c2)[C@@H](C)c2c(C(=O)N3[C@H](C#N)C[C@H]4C[C@H]43)nn(C3CCOCC3)c21 [Compound I-387]",
    "Measured attribute": "kinact/KI",
    "Assay value": 46700
  }
]

The following compounds each have a reported value; give each one's kinact/KI.
1. CCN1C(=O)[C@@H](NC(=O)c2cccc(C(F)(F)F)c2)[C@@H](C2CC2)c2c(C(=O)N3C[C@H](OC)C[C@H]3C#N)nn(C3CCOCC3)c21 [Compound I-377]
2. CCc1cccc(C(=O)N[C@@H]2C(=O)N(CC)c3c(c(C(=O)N4[C@H](C#N)C[C@H]5C[C@H]54)nn3C3CCOCC3)[C@@H]2C2CC2)c1 [Compound I-552]
3. CCN1C(=O)[C@@H](NC(=O)c2cccc(C(F)(F)F)c2)[C@@H](C2CC2)c2c(C(=O)N3C[C@H](F)C[C@H]3C#N)nn(C3CCOCC3)c21 [Compound I-372]
4. CCN1C(=O)[C@@H](NC(=O)c2cccc(C(F)(F)F)c2)[C@@H](c2ccc(F)cc2)c2c(C(=O)N(C)[C@H](C#N)CCN(C)C)nn(C3CCOCC3)c21 [Compound I-370]
5. CCN1C(=O)[C@@H](NC(=O)c2cccc(C(F)(F)F)c2)[C@@H](c2ccc(F)cc2)c2c(C(=O)N3CCC[C@H]3C#N)nn(C3CCOCC3)c21 [Compound I-350]

Result:
1: 21700; 2: 333000; 3: 13300; 4: 107000; 5: 45000

The following compounds each have a reported value; give each one's kinact/KI.
1. CCN1C(=O)[C@@H](NC(=O)c2cccc(C(F)(F)F)c2)[C@@H](C2CC2)c2c(C(=O)N3C[C@H](NC)C[C@H]3C#N)nn(C3CCOCC3)c21 [Compound I-425]
2. CCN1C(=O)[C@@H](NC(=O)c2cccc(C(F)(F)F)c2)[C@@H](C2CC2)c2c(C(=O)N3[C@H](C#N)C[C@H]4C[C@H]43)nn(C3CCOCC3)c21 [Compound I-256]

Result:
1: 5000; 2: 78300

---

Target: DCN1 (DCUND1) protein PONY domain (Homo sapiens (Human), UniProt Q96GG9)
Sequence (Q96GG9 60-248): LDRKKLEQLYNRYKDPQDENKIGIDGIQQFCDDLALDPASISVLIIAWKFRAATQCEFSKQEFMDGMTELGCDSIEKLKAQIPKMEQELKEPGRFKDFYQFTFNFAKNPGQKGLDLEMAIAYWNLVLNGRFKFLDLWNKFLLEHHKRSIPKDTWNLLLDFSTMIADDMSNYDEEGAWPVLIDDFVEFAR
Assay explanation: TR-FRET assay, DCN1 binding with FAM-labeled probe
Condition info: 24 hr after treatment with compound; read-out: TR FRET IC50 24 hr
pIC50: −log10 of the molar value.
Measured attribute: pIC50

Answered examples (2):
[
  {
    "Molecule": "CCN1C(=O)[C@@H](NC(=O)c2cccc(C(F)(F)F)c2)[C@H](c2ccc(F)cc2)c2c(CN(C)C(=O)CC#N)nn(-c3ccccc3)c21 [Compound I-403]",
    "Measured attribute": "pIC50",
    "Assay value": "6.00 to 6.70"
  },
  {
    "Molecule": "CCN1C(=O)[C@@H](NC(=O)c2cccc(C(F)(F)F)c2)[C@@H](c2ccc(F)cc2)c2c(CNC(=O)C#CCN3CCOCC3)nn(-c3ccccc3)c21 (racemic) [Compound I-68]",
    "Measured attribute": "pIC50",
    "Assay value": "6.00 to 6.70"
  }
]

Please look at the following molecule next.
Problem: Requested field: pIC50. Item: CCN1C(=O)[C@@H](NC(=O)[C@H]2C[C@@H]3CCCC[C@@H]3N2)[C@@H](C2CC2)c2c(C(=O)N3[C@H](C#N)C[C@H]4C[C@H]43)nn(C3CCOCC3)c21 [Compound I-566]
Result: 5.52 to 6.00

---

Target: DCN1 (DCUND1) protein PONY domain (Homo sapiens (Human), UniProt Q96GG9)
Assay explanation: TR-FRET assay, DCN1 binding with FAM-labeled probe
Condition info: 24 hr after treatment with compound; read-out: TR FRET IC50 24 hr
pIC50: −log10 of the molar value.
For each record, write down the corresponding pIC50.

Answered examples (6):
[
  {
    "Compound": "CCN1C(=O)[C@@H](NC(=O)c2ccc3[nH]cnc3c2)[C@@H](C2CC2)c2c(C(=O)N3[C@H](C#N)C[C@H]4C[C@H]43)nn(C3CCOCC3)c21",
    "pIC50": "5.52 to 6.00"
  },
  {
    "Compound": "CCN1C(=O)[C@@H](NC(=O)c2cccc(C(F)(F)F)c2)[C@@H](c2ccc(F)cc2)c2c(NC(=O)/C=C/C(F)(F)F)nn(-c3ccccc3)c21",
    "pIC50": "6.00 to 6.70"
  },
  {
    "Compound": "CCN1C(=O)[C@@H](NC(=O)c2cccc(C(F)(F)F)c2)[C@@H](c2ccc(F)cc2)c2c([C@@H](CCC(O)CO)NC#N)nn(-c3ccccc3)c21 (stereo partly drawn)",
    "pIC50": "≥ 6.70"
  },
  {
    "Compound": "CCN1C(=O)[C@@H](NC(=O)c2cccc(C(F)(F)F)c2)[C@@H](c2ccc(F)cc2)c2c(C(=O)N(C)[C@@H](C#N)CCO)nn(-c3ccccc3)c21 (relative stereo)",
    "pIC50": "≥ 6.70"
  },
  {
    "Compound": "CCN1C(=O)[C@@H](NC(=O)c2cccc(C(F)(F)F)c2)[C@@H](c2ccc(F)cc2)c2c(CNC/C=C/C(=O)N(C)C)nn(-c3ccccc3)c21",
    "pIC50": "≥ 6.70"
  },
  {
    "Compound": "CCN1C(=O)[C@@H](NC(=O)CC2CC(=O)c3ccc(OC)cc32)[C@@H](C2CC2)c2c(C(=O)N3[C@H](C#N)C[C@H]4C[C@H]43)nn(C3CCOCC3)c21 (stereo partly drawn)",
    "pIC50": "5.52 to 6.00"
  }
]

The following compounds each have a reported value; give each one's pIC50.
1. CCN1C(=O)[C@@H](NC(=O)c2cccc(C(F)(F)F)c2)[C@@H](c2ccc(F)cc2)c2c(CNC(=O)[C@@H](C)C#N)nn(-c3ccccc3)c21 (relative stereo)
2. CCN1C(=O)[C@@H](NC(=O)c2cccc(C(F)(F)F)c2)[C@@H](c2ccc(F)cc2)c2c(C(C)=O)nn(-c3ccccc3)c21 (racemic)
3. CCN1C(=O)[C@@H](NC(=O)c2cccc(C(F)(F)F)c2)[C@@H](c2ccc(F)cc2)c2c(NC(=O)C3(C#N)CCOCC3)nn(-c3ccccc3)c21 (racemic)
4. CCN1C(=O)[C@@H](NC(=O)c2cccc(C(F)(F)F)c2)[C@@H](C2CC2)c2c(C(=O)N3CC[C@H]3C#N)nn(C3CCOCC3)c21
5. C=C(CN1CCOCC1)C(=O)Nc1nn(-c2ccccc2)c2c1[C@H](c1ccc(F)cc1)[C@H](NC(=O)c1cccc(C(F)(F)F)c1)C(=O)N2CC (racemic)
6. CCN1C(=O)[C@@H](NC(=O)c2cccc(C(F)(F)F)c2)[C@@H](C2CC2)c2c(C(=O)N(C)C(C)C#N)nn(C3CC3)c21 (stereo partly drawn)
7. CCN1C(=O)[C@@H](NC(=O)c2cccc(C(F)(F)F)c2)[C@@H](C2CCC2)c2c(C(=O)N3[C@H](C#N)C[C@H]4C[C@H]43)nn(C3CCOCC3)c21

Result:
1: 6.00 to 6.70; 2: 5.52 to 6.00; 3: 6.00 to 6.70; 4: ≥ 6.70; 5: ≥ 6.70; 6: 6.00 to 6.70; 7: ≥ 6.70

The following compounds each have a reported value; give each one's pIC50.
1. CCN1C(=O)[C@@H](NC(=O)c2cccc(C(F)(F)F)c2)[C@@H](c2ccc(F)cc2)c2c(C/C=C/C(=O)OC)nn(-c3ccccc3)c21 (racemic)
2. CCN1C(=O)[C@@H](NC(=O)c2cccc(C(F)(F)F)c2)[C@H](c2ccc(F)cc2)c2c(CC(=O)NCC#N)nn(-c3ccccc3)c21
3. CCN1C(=O)[C@@H](NC(=O)c2cccc(C(F)(F)F)c2)[C@@H](C2CC2)c2c(C(=O)N3C[C@H](F)C[C@H]3C#N)nn(C3CCOCC3)c21
4. CCN1C(=O)[C@@H](NC(=O)c2cccc(C(F)(F)F)c2)[C@@H](c2ccc(F)cc2)c2c(CN(C#N)CCCO)nn(-c3ccccc3)c21 (racemic)
5. CCN1C(=O)[C@@H](NC(=O)c2cccc(C(F)(F)F)c2)[C@@H](c2ccc(F)cc2)c2c(C(=O)N3CCNCC3C#N)nn(C3CCOCC3)c21 (stereo partly drawn)
6. CCN1C(=O)[C@@H](NC(=O)c2nc3c(s2)CN(C)CC3)[C@@H](C2CC2)c2c(C(=O)N3[C@H](C#N)C[C@H]4C[C@H]43)nn(C3CCOCC3)c21
7. CCN1C(=O)[C@@H](NC(=O)C23CC(C(F)(F)F)(C2)C3)[C@@H](C2CC2)c2c(C(=O)N3[C@H](C#N)C[C@H]4C[C@H]43)nn(C3CCOCC3)c21
8. C=C(CN1CC2(CCC2O)C1)C(=O)NCc1nn(-c2ccccc2)c2c1[C@H](c1ccc(F)cc1)[C@H](NC(=O)c1cccc(C(F)(F)F)c1)C(=O)N2CC (mixture of isomers)

Result:
6.00 to 6.70
6.00 to 6.70
≥ 6.70
6.00 to 6.70
≥ 6.70
5.52 to 6.00
5.52 to 6.00
≥ 6.70
